# TEST DESCRIPTION: chemical genetic growth profiling, strain panel (AID 1159580);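 further: tested at 20 µM; growth read once vehicle control cultures reached saturation at 30 °C; lower values mean less growth of the strain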
# MEASUREMENT CONDITIONS: S. cerevisiae deletion strains, growth OD, locus YER111C, strain swi4
Among all 5,500 compounds or so, about 2,000 (36%) were called active. About 18% were inconclusive and are not listed. No stated cut-off is given here; in the data, active means normalized growth mostly below about 0.91 (no sharp cut-off); inconclusive means no clear call, values can overlap the other calls; inactive means mostly above about 0.92. Some of the results follow.
Outcome field: choose from active, inactive

* CN1CCN(CC(=O)N2c3ccccc3C(=O)Nc3cccnc32)CC1 | inactive
* CCN(CC)CCNC(=O)c1cc(Cl)c(N)cc1OC | inactive
* NCCc1cc(O)c(O)cc1O | inactive

Test call, this compound: `OCCN1CCN(CCCN2c3ccccc3Sc3ccc(C(F)(F)F)cc32)CC1`
inactive

Lab log entry: COC1(C)CCC2OC2(C)CCC2C1CC2(C)C (stereo not drawn) — outcome as called in the assay?
inactive

What did this assay record as the result for `CCOc1ccc(C(=O)c2cc(O)c(OC)c(OC)c2O)cc1` ?
inactive

Name the outcome recorded for O=c1[nH]cnc2c1ncn2C1O[C@H](CO)[C@@H](O)[C@H]1O (stereo partly drawn) in the assay.
inactive

Field: outcome | Entry: `O=c1oc2c(O)c(O)cc3c(=O)oc4c(O)c(O)cc1c4c23`
active

For CCc1cccc2c3c([nH]c12)C(CC)(CC(=O)O)OCC3 (stereo not drawn) , which call appears in the assay record?
inactive

For this compound, state the assay outcome: CN1C(=O)CCS(=O)(=O)C1c1ccc(Cl)cc1 (stereo not drawn)
inactive

Would you mind telling me which call this test gave CC(=O)OC1CCC2(C)C3CC(=O)C4(C)C(CC5OC6(CCC(C)CO6)[C@@H](C)C54)C3CC[C@H]2C1 (stereo partly drawn) ?
inactive
